Values compiled from PubChem BioAssay (NCI).

- protocol.text: NCI Yeast Anticancer Drug Screen. Data for the sgs1 mgt1 strain (AID 161);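 note: 0% = growth of cultures given vehicle only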
- condition.info: S. cerevisiae sgs1 mgt1 strain, at 50.0 µM, hits give high values
- Protocol: Growth inhibition of yeast strains with defined genetic alterations is measured as a screen for potential anti-cancer activity. Selected strains with alterations in DNA damage repair or cell cycle control were exposed to compounds and growth inhibition was measured relative to vehicle treated controls. The strain used in this assay is sgs1 mgt1
About 79,000 compounds went through this panel and 15% of them were active in at least one assay; those are over-represented in the sample as a whole. Activity calls are given as the source filed them. Cut-off read from the data, not from the text of the source: active = growth inhibition above about 70%; inactive = the rest.
metric.name: growth inhibition

What growth inhibition value was documented for this compound, `CCC(=O)c1cccc2ccccc12` ?
20% (inactive)

Another: CCOC(=O)[C@H]1Nc2ccccc2C2c3ccccc3CC21 (stereo partly specified)
91.4% (active)

What do you get for `CCNc1nnc(CSc2nc(-c3ccccc3)c(-c3ccccc3)[nH]2)s1` ?
64.8% (inactive)

Try O=[N+]([O-])CC(SCc1ccccc1)c1ccc2c(c1)OCO2 (stereo unspecified) next.
92.7% (active)

Next compound: COc1ccccc1C(=O)OCC1CCCN2CCCCC12 (stereo unspecified)
91.6% (active)

Same thing, different compound: `CN(C)c1ccc(Sc2ccc3nc(N)nc(N)c3c2)cc1`
60% (inactive)
